Entries annotated with measured EC50
Biological target: Neuropeptide Y receptor type 2 (Homo sapiens, UniProt P49146)
Experiment: Agonist activity at human neuropeptide Y2 receptor expressed in CHO cell membranes assessed as stimulation of [35S]GTPgammaS binding incubated for 120 mins by liquid scintillation counting method
# value in nM; strip the unit string

COMPOUND STRUCTURE	EC50 [nM]
CC[C@](C)(NC(=O)[C@H](CC1CCCCC1)NC(=O)[C@H](Cc1ccncc1)NC(=O)[C@](C)(CC)NC(=O)[C@H]1C[C@H](O)CN1C(=O)[C@H](CO)NC(C)=O)C(=O)N[C@@H](CC(N)=O)C(=O)N[C@@H](CCCCN)C(=O)NC(C)(C)C(=O)N[C@H](C(=O)N[C@@H](CCCNC(=N)N)C(=O)N[C@@H](CCC(N)=O)C(=O)N[C@@H](CCCNC(=N)N)C(=O)N[C@@H](CC1CCCCC1)C(N)=O)[C@@H](C)O	0.17

Ask: Write down EC50 measured for item `CC[C@@](C)(NC(=O)[C@H]1CCCN1C(=O)[C@H](CO)NC(C)=O)C(=O)N[C@@H](Cc1cnc[nH]1)C(=O)N[C@@H](CC1CCCCC1)C(=O)N[C@@H](CC1CCCCC1)C(=O)N[C@@H](CC(N)=O)C(=O)N[C@@H](CC(C)C)C(=O)NC(C)(C)C(=O)N[C@H](C(=O)N[C@@H](CCCNC(=N)N)C(=O)N[C@@H](CCC(N)=O)C(=O)N[C@@H](CCCNC(=N)N)C(=O)N[C@@H](CC1CCCCC1)C(N)=O)[C@@H](C)O`
Reply: 0.5

Ask: Return the recorded EC50 value; entry: `CC[C@](C)(NC(=O)[C@H](CC(C)C)NC(=O)[C@H](CC(N)=O)NC(=O)[C@H](CC1CCCCC1)NC(=O)[C@H](CC1CCCCC1)NC(=O)[C@H](Cc1cnc[nH]1)NC(=O)[C@H](CCCNC(=N)N)NC(=O)[C@H]1CCCN1C(=O)[C@H](CO)NC(C)=O)C(=O)N[C@H](C(=O)N[C@@H](CCCNC(=N)N)C(=O)N[C@@H](CCC(N)=O)C(=O)N[C@@H](CCCNC(=N)N)C(=O)N[C@@H](CC1CCCCC1)C(N)=O)[C@@H](C)O`
Reply: 0.41

====

Biological target: Neuropeptide Y receptor type 2 (Homo sapiens)
Sequence (P49146 whole entry): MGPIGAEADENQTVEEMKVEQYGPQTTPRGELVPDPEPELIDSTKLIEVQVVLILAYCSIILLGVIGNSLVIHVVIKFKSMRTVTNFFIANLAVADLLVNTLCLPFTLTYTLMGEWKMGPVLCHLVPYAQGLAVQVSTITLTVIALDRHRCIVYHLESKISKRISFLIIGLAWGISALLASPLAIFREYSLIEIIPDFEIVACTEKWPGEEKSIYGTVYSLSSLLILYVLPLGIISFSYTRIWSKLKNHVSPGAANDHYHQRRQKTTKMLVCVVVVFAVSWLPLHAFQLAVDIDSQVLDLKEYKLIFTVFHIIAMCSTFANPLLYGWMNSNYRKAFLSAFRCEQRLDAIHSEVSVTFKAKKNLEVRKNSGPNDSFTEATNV
Test: Agonist activity at human neuropeptide Y2 receptor expressed in CHO cell membranes assessed as stimulation of [35S]GTPgammaS binding incubated for 120 mins by liquid scintillation counting method
Square brackets hold non-standard residues; d marks the D form. Peptide text beside a SMILES is read from it. 4Pal = N[C@@H](Cc1ccncc1)C(=O)O; Cha = N[C@@H](CC1CCCCC1)C(=O)O; Aib = CC(C)(N)C(=O)O
MEASUREMENT KIND: EC50 (nM)
Write down the numeric answer in nM and omit the unit.

Observe how each entry below is paired with its result.
COMPOUND	EXPERIMENTAL VALUE
CC[C@](C)(NC(=O)[C@H](CO)NC(C)=O)C(=O)N[C@@H](CCCNC(=N)N)C(=O)N[C@@H](Cc1cnc[nH]1)C(=O)N[C@@H](CC1CCCCC1)C(=O)N[C@@H](CC1CCCCC1)C(=O)N[C@@H](CC(N)=O)C(=O)N[C@@H](CC(C)C)C(=O)NC(C)(C)C(=O)N[C@H](C(=O)N[C@@H](CCCNC(=N)N)C(=O)N[C@@H](CCC(N)=O)C(=O)N[C@@H](CCCNC(=N)N)C(=O)N[C@@H](CC1CCCCC1)C(N)=O)[C@@H](C)O	0.35
CC(C)C[C@H](NC(=O)[C@H](CC(N)=O)NC(=O)[C@H](CC1CCCCC1)NC(=O)[C@H](CC1CCCCC1)NC(=O)[C@H](Cc1cnc[nH]1)NC(=O)[C@H](CCCNC(=N)N)NC(=O)[C@H]1CCCN1C(=O)[C@H](CO)NC(=O)CCC(=O)O)C(=O)NC(C)(C)C(=O)N[C@H](C(=O)N[C@@H](CCCNC(=N)N)C(=O)N[C@@H](CCC(N)=O)C(=O)N[C@@H](CCCNC(=N)N)C(=O)N[C@@H](CC1CCCCC1)C(N)=O)[C@@H](C)O	0.4
CC[C@](C)(NC(=O)[C@H]1C[C@H](O)CN1C(=O)[C@H](CO)NC(C)=O)C(=O)N[C@@H](Cc1ccncc1)C(=O)N[C@@H](CC1CCCCC1)C(=O)NC(C)(C)C(=O)N[C@@H](CC(N)=O)C(=O)N[C@@H](CCCCN)C(=O)NC(C)(C)C(=O)N[C@H](C(=O)N[C@@H](CCCNC(=N)N)C(=O)N[C@@H](CCC(N)=O)C(=O)N[C@@H](CCCNC(=N)N)C(=O)N[C@@H](CC1CCCCC1)C(N)=O)[C@@H](C)O	0.21
CC(=O)N[C@@H](CO)C(=O)NC(C)(C)C(=O)N[C@@H](CCCNC(=N)N)C(=O)N[C@@H](Cc1ccncc1)C(=O)N[C@@H](CC1CCCCC1)C(=O)NC(C)(C)C(=O)N[C@@H](CC(N)=O)C(=O)N[C@@H](CCCCN)C(=O)NC(C)(C)C(=O)N[C@H](C(=O)N[C@@H](CCCNC(=N)N)C(=O)N[C@@H](CCC(N)=O)C(=O)N[C@@H](CCCNC(=N)N)C(=O)N[C@@H](CC1CCCCC1)C(N)=O)[C@@H](C)O (Ac-S[Aib]R[4Pal][Cha][Aib]NK[Aib]TRQR[Cha]-NH2)	0.13
CC(C)C[C@H](NC(=O)[C@H](CC(N)=O)NC(=O)[C@H](CC1CCCCC1)NC(=O)[C@H](CC1CCCCC1)NC(=O)[C@H](Cc1cnc[nH]1)NC(=O)[C@H](CCCNC(=N)N)NC(=O)[C@H]1CCCN1C(=O)[C@H](CO)NC(=O)C(C)C)C(=O)NC(C)(C)C(=O)N[C@H](C(=O)N[C@@H](CCCNC(=N)N)C(=O)N[C@@H](CCC(N)=O)C(=O)N[C@@H](CCCNC(=N)N)C(=O)N[C@@H](CC1CCCCC1)C(N)=O)[C@@H](C)O	0.49

Alright, here's another compound for you.
Ask: Report measured EC50; entry is `CC(C)C[C@H](NC(=O)[C@H](CC(N)=O)NC(=O)[C@H](CC1CCCCC1)NC(=O)[C@H](CC1CCCCC1)NC(=O)[C@H](Cc1cnc[nH]1)NC(=O)[C@H](CCCNC(=N)N)NC(=O)[C@H]1CCCN1C(=O)[C@H](CO)NC(=O)CO)C(=O)NC(C)(C)C(=O)N[C@H](C(=O)N[C@@H](CCCNC(=N)N)C(=O)N[C@@H](CCC(N)=O)C(=O)N[C@@H](CCCNC(=N)N)C(=O)N[C@@H](CC1CCCCC1)C(N)=O)[C@@H](C)O`
Reply: 0.59
